# test system: AgSla1-D1-D2
# assay notes: SPOT peptide array binding signal intensity (averaged, normalized) (arbitrary units (background-subtracted, floor 0; scale differs between SH3 domains)); higher = stronger binding of the SH3 domain to the peptide
quantity measured: SPOT peptide array binding signal intensity
I only need the number, thanks.

binder: GSKSGPPPRPKKPST
recorded number: 9

Could you now consider this next binder?
I would be grateful if you could share the reported SPOT peptide array binding signal intensity for PSRRAPLQLPQLVNK . 6

Entry source: the supplement of paper PMC4466140
